tested on: androgen receptor; assay: androgenic activity rating (procedures described above); set-up: key: +: androgenic activity found; ++: high androgenic activity; +++: excellent androgenic activity; conditions: rated according to scheme; test procedure not specified
property_measured: Result (androgenic activity)

Some entries whose results are on file:
Requested read-out Result (androgenic activity), target or system androgen receptor, entry "C[C@@H]1CC2=CC(=O)CC[C@@H]2[C@H]2CC[C@@]3(C)[C@H](C[C@@H]4C[C@@]43CO)[C@@H]21"
+++

Requested read-out Result (androgenic activity), target or system androgen receptor, entry "C[C@]12CC[C@H]3[C@@H](CC[C@H]4CC(=O)CC[C@@H]43)[C@H]1C[C@@H]1C[C@@]12CO"
++

Requested read-out Result (androgenic activity), target or system androgen receptor, entry "C#C[C@H](O)[C@]12C[C@H]1C[C@@H]1[C@H]3[C@H](CC[C@@]12C)[C@H]1CCC(=O)C=C1C[C@H]3C"
++

Requested read-out Result (androgenic activity), target or system androgen receptor, entry "C[C@@H]1CC2=CC(=O)CC[C@@H]2[C@H]2CC[C@@]3(C)[C@H](C[C@@H]4C[C@@]43[C@H](C)O)[C@@H]21"
++

Requested read-out Result (androgenic activity), target or system androgen receptor, entry "C[C@@H]1CC2=C/C(=N\O)CC[C@@H]2[C@H]2CC[C@@]3(C)[C@H](C[C@@H]4C[C@@]43CO)[C@@H]21"
(prodrug)

// switching to the query molecule
Requested read-out Result (androgenic activity), target or system androgen receptor, entry "C[C@@H]1CC2=C[C@@H](O)CC[C@@H]2[C@H]2CC[C@@]3(C)[C@H](C[C@@H]4C[C@@]43CO)[C@@H]21"
(prodrug)
